All values here come from BindingDB's records for doi:10.1021/jm9508853.

Study System: B-cell lymphoma 6 protein (Homo sapiens, UniProt P41182)
Assay Remarks: Inhibition of human BCL6 BTP domain by ELISA assay
Field: IC50. Provide a value for each of the compounds that follow.
Kindly format the answer as number then unit.

Example entries and their recorded answers appear below.
Structure Notation	Reported Metric	Reported Measurement
CC(C)[C@H](NC(=O)[C@H](CCCNC(=N)N)NC(=O)[C@H](Cc1c[nH]c2ccccc12)NC(=O)[C@@H](N)CO)C(=O)N1CCC[C@H]1C(=O)O	IC50	1500 µM
CSCC[C@H](N)C(=O)N[C@@H](CO)C(=O)N[C@@H](Cc1c[nH]c2ccccc12)C(=O)N[C@@H](CCCNC(=N)N)C(=O)N[C@H](C(=O)N1CCC[C@H]1C(=O)O)C(C)C	IC50	620 µM

We now examine a further compound.
[Q] Fill in: IC50 of `CC(=O)N[C@@H](Cc1c[nH]c2ccccc12)C(=O)N[C@@H](CCCNC(=N)N)C(=O)N[C@H](C(=O)N1CCC[C@H]1C(=O)O)C(C)C` is ___
[A] 170 µM

* * *

Study System: B-cell lymphoma 6 protein (Homo sapiens)
Assay Remarks: Reversible inhibition of human BCL6 BTP domain measured by TR-FRET assay
Reported Metric: IC50
Kindly format the answer as number then unit.

[Q] Fill in: IC50 of `CNC(=O)COc1cc2cc(Nc3nc(NCc4cccc(S(C)(=O)=O)c4)ncc3Cl)cc(OC)c2n(C)c1=O` is ___
[A] 368 nM

* * *

Study System: B-cell lymphoma 6 protein (Homo sapiens, UniProt P41182)
Assay Remarks: Inhibition of human BCL6 BTP domain measured by fluorescence polarization assay
Reported Metric: IC50 (µM)
Give bare numbers, in µM.

Example entries and their recorded answers appear below.
> print(dat)
                         structure.notation                              study.system  reported.metric  scale.unit  reported.measurement
1                 N#Cc1c(NCc2ccccc2)ccnc1Cl  B-cell lymphoma 6 protein (Homo sapiens, UniProt P41182)             IC50          µM                   120
2       Cn1c(=O)n(C)c2cc(Nc3ncccc3C#N)ccc21  B-cell lymphoma 6 protein (Homo sapiens, UniProt P41182)             IC50          µM                    86
3  Cn1c(=O)n(C)c2cc(Nc3cc(SCc4ccccc4)ncn3)ccc21  B-cell lymphoma 6 protein (Homo sapiens, UniProt P41182)             IC50          µM                    70

We now examine a further compound.
[Q] Fill in: IC50 of `N#Cc1c(NCC2CC2)ccnc1Cl` is ___
[A] 207

* * *

Study System: Casein kinase II subunit alpha 3 (Homo sapiens)
Sequence (Q8NEV1 whole entry): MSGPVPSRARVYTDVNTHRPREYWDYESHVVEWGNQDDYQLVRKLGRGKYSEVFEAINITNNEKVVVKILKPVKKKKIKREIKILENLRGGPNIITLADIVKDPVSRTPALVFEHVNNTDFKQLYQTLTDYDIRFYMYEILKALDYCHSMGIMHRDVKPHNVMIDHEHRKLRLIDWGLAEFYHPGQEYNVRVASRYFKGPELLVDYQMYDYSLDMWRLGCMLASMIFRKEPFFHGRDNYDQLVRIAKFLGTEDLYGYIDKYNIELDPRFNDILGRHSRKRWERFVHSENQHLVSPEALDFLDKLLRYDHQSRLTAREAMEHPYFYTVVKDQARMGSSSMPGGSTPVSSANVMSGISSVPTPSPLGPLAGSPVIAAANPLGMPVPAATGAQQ
Assay Remarks: Inhibition of CK2 (unknown origin)
Field: IC50. Provide a value for each of the molecules that follow.

Example entries and their recorded answers appear below.
> print(dat)
                         structure.notation  reported.measurement
1  COc1cccc(CN2C(=O)CCc3cc4cc(c32)OC/C=C/CO[C@H]2C[C@@H](CO)N(C2)c2cc(n3ncc(Cl)c3n2)N4)c1               > 10 µM
2  Cc1ccccc1CN1C(=O)CCc2cc3cc(c21)OC/C=C/CO[C@H]1C[C@@H](CO)N(C1)c1cc(n2ncc(Cl)c2n1)N3               > 10 µM

Each of the following entries comes with a recorded value; kindly state IC50 for each.
1. N#Cc1cnn2c3cc(nc12)N1C[C@H](C[C@H]1CO)OC/C=C/COc1cc(cc2c1NC(=O)CC2)N3
2. O=C1CCc2cc3cc(c2N1Cc1ccccc1)OC/C=C/CO[C@H]1C[C@@H](CO)N(C1)c1cc(n2ncc(Cl)c2n1)N3

[A]
["0.64 µM", "> 10 µM"]
